These entries and their values trace back to PubChem BioAssay (NCI).

Test system: EKVX NSCLC
Assay: NCI tumour cell line growth inhibition, 48 h
*1 amine or outer side, *2 acyl side, *3 side chain or, on linkers, in order; H or OH if unused. Where a SMILES comes first, the peptide text is derived from it. Bridges are numbered along the chain shown (N, C = ends). Roman numbers before positions name the chains, in order. X23 = CCCCCCCCCCCCCCC(=O)NC(CCCCN[*:2])C(=O)CN1CCCC1C(=O)[*:1]
readout: TGI

Examples from the recorded data:
compound | readout | experimental value
CC(=O)C(CN(C)Cc1ccccc1)C(c1ccccc1)c1c(O)c2ccccc2oc1=O (stereo not drawn) | TGI | > 100 µM
Cc1ccc2c(n1)C(=O)C(Cl)=C(Nc1ccc(N3CCN(C)CC3)cc1)C2=O | TGI | 3.12 µM
COc1ccc(Oc2nc(Nc3ccc(N4CCOCC4)cc3)ncc2NC(=O)Nc2cc(OC)cc(OC)c2)cc1 | TGI | > 33.3 µM
c1ccc(-c2sc(-c3ccccc3)c3c2C2CCC3C2)cc1 | TGI | > 100 µM
COc1ccc(C2c3cc4c(c(OC)c3CC3OCC(=O)C32)OCO4)cc1OC (stereo not drawn) | TGI | > 100 µM
CC(=O)Nc1cc(C(c2ccccc2)c2ccccc2)cc(C(c2ccccc2)c2ccccc2)c1C | TGI | > 100 µM
COc1cc(-c2ccc(Nc3ccccc3C(=O)O)c(OC)c2)ccc1Nc1ccccc1C(=O)O | TGI | > 97.4 µM

# lookup: TGI of CCCCCCCCCCCCCCC(=O)NC(CCCCNC(=O)C1CCCN1C(=O)C(CCCCN)NC(=O)C(CCCCN)NC(=O)C(CCCCN)NC(=O)C(CCCNC(=N)N)NC(=O)C(CCCCN)NC(=O)C(N)C(C)C)C(=O)CN1CCCC1C(=O)NCC(=O)NC(Cc1ccccc1)C(=O)N1CCCC1C(=O)NC(CO)C(=O)NC(Cc1ccc(O)cc1)C(=O)NC(CCCCN)C(=O)NC(CC(C)C)C(=O)NC(CCCNC(=N)N)C(=O)N1CCCC1C(=O)NCC(N)=O (stereo not drawn) (I: GFPSYKLRPG-NH2 / II: H-VKRKKKP; linker I:N-II:C via X23; configuration not given here)
58.7 µM

###

Items are presented alongside their recorded TGI.
Tested on: MALME-3M melanoma
Assay: NCI tumour cell line growth inhibition, 48 h

Examples from the recorded data:
compound | experimental value
CC(=O)C1=C(C)N(c2ccc(C)cc2)C2(O)C=CC(=O)C3=C(O)c4ccccc4C(=O)C312 (stereo not given) | 5.07 µM
Cc1ccc(C)c(NC(=O)C(=O)CC(=O)c2cccc3ccccc23)c1 | > 100 µM
O=C(NCCSSCCNC(=O)/C(Cc1ccc(O)c(Br)c1)=N/O)/C(Cc1ccc(O)c(Br)c1)=N/O | 7.44 µM
Cc1ccccc1C(=O)NC(O)(C(F)(F)F)C(F)(F)F | > 100 µM

--- query ---
Identify the measured TGI of COC(=O)CCN1CCN(CCO)CC1C (stereo not given) for MALME-3M melanoma.
> 10 µM

###

Items are presented alongside their recorded log10(TGI).
System: HCT-15 colon
Experiment: NCI tumour cell line growth inhibition, 48 h
Field: value | Transform: log10 | Quantity: TGI | Unit: µM

Examples from the recorded data:
compound | log10(TGI)
CC12OC3(C(O)C1O)C(C(=O)O[C@H]3CO[Si](C)(C)C(C)(C)C)C2S(=O)(=O)c1ccccc1 (stereo partly specified) | 1.95
Cc1nn2c(=O)n(-c3cccc(-n4nnc5c(-c6ccccc6)c(C)nn5c4=O)c3C)nnc2c1-c1ccccc1 | 1.80
Oc1[nH]c2ccc(Cl)cc2c1/C=c1/ccc2c(c1)N=C(c1ccc(C(F)(F)F)cc1)N=2 | 0.95

# lookup: log10(TGI) of c1ccc(CNCCCNCCCCNCCCNCc2ccccc2)cc1
1.53

# lookup: log10(TGI) of CCOC(=O)c1c(SC)nc(-c2ccc(Cl)cc2)sc1=N
1.87

###

Tested on: SK-MEL-5 melanoma
Assay: NCI tumour cell line growth inhibition, 48 h
readout: TGI

compound | experimental value
c1cc2ccc3cc2cc1CNCCOCCNCc1ccc2ccc(cc2c1)CNCCOCCNC3 | > 100 µM
CCNC(=S)Nc1c(C#N)c2n(c1C(=O)OCC)CCCCC2 | > 100 µM
N=C1/C(=C/c2ccccc2)C(=O)N=C2SC=NN12 | > 100 µM
O=CN(O)CC(=O)O.[Ni] | > 100 µM
CCCC1=NC(C(F)(F)F)(C(F)(F)F)N=C(N2CCOCC2)O1 | > 100 µM
CC(C)CNC(=O)c1c(NC(=O)c2ccccc2)sc2[nH]c(=O)n(-c3ccccc3)c(=O)c12 | > 100 µM
Cc1ccc(SC2C(C)(C)N(C(C)C)P2(=O)N(C(C)C)C(C)C)cc1 (stereo unspecified) | > 100 µM
C=C(C)C1Cc2c(cc(OC)c3c(=O)c4ccccc4n(C)c23)O1 (stereo unspecified) | > 100 µM

# lookup: TGI of c1ccc2c(c1)ccc1nc3ccccn3c12
> 100 µM

# lookup: TGI of O=S(=O)(CC(O)C(Cl)(Cl)Cl)NNc1ccccc1 (stereo unspecified)
> 100 µM

# lookup: TGI of CC(N)CN.CC(N)CN.[Cl-].[O]=[Os+2]=[O] (stereo unspecified)
> 100 µM

# lookup: TGI of CC(=O)C1=C(C)N(c2ccc(C)cc2)C2(O)C=CC(=O)C3=C(O)c4ccccc4C(=O)C312 (stereo unspecified)
26.3 µM

# lookup: TGI of O=C(Nc1sccc1S(=O)(=O)c1ccc(Cl)cc1)c1ccc(Cl)cc1Cl
> 100 µM

# lookup: TGI of O=C(Nc1ccc2cc3ccc(NC(=O)N4CCCCCC4)cc3nc2c1)N1CCCCCC1
2.81 µM

# lookup: TGI of COc1ccc(Oc2nc(Nc3ccc(N4CCOCC4)cc3)ncc2NC(=O)Nc2cc(OC)cc(OC)c2)cc1
3.79 µM

# lookup: TGI of O=C1CC(NCCCNC2CC(=O)c3c(Br)sc(Br)c32)c2c(Br)sc(Br)c21 (stereo unspecified)
6.04 µM

# lookup: TGI of O=C1CC(NC2CC(=O)c3c(Br)sc(Br)c32)c2c(Br)sc(Br)c21 (stereo unspecified)
18.2 µM

# lookup: TGI of CCOC(=O)C/C(N)=C(\C#N)C(=O)OCC
> 100 µM

# lookup: TGI of NS(=O)(=O)c1cccc(-c2cc3ccncc3cc2OCc2ccccc2)c1
> 15.8 µM

# lookup: TGI of CCOC(=O)CCC(NC(=O)c1ccc(OCc2ccc3nc(OC)c(OC)nc3c2)cc1)C(=O)OCC (stereo unspecified)
> 100 µM

###

Test system: A498 renal
Assay: NCI tumour cell line growth inhibition, 48 h
Items are presented alongside their recorded TGI.

Identify the measured TGI of CC1(Br)S(=O)(=O)OCCOS1(=O)=O for A498 renal.
> 100 µM

Identify the measured TGI of Cc1cc(CN(Cc2ccccc2)Cc2nc3ccccc3[nH]2)c(O)c(CN(Cc2nc3ccccc3[nH]2)Cc2nc3ccccc3[nH]2)c1 for A498 renal.
> 48.6 µM

Identify the measured TGI of CC12OC3(C(O)C1O)C(C(=O)O[C@H]3CO[Si](C)(C)C(C)(C)C)C2S(=O)(=O)c1ccccc1 (stereo not given in full) for A498 renal.
> 100 µM

Identify the measured TGI of Clc1cc2nnn(C3CCCCO3)c2cc1Cl (stereo not given) for A498 renal.
> 100 µM

Identify the measured TGI of c1csc(-c2cscc2-c2cccs2)c1 for A498 renal.
> 100 µM

Identify the measured TGI of CC(=O)OCC1=C2C(OC(=O)C(C)C)CC3(COC(C)=O)OC3/C=C\C3(C)OC3C2OC1=O (stereo not given) for A498 renal.
> 100 µM

Identify the measured TGI of CC(C)CNC(=O)c1c(NC(=O)c2ccccc2)sc2[nH]c(=O)n(-c3ccccc3)c(=O)c12 for A498 renal.
> 71.2 µM

Identify the measured TGI of O=[P+](O)c1cccs1 for A498 renal.
> 100 µM

Identify the measured TGI of Cc1ccc(-c2c3c(N)nc(-c4ccncc4)nc3nc3c2c(C)nn3-c2ccccc2)cc1 for A498 renal.
> 37.5 µM

###

System: RXF 393 renal
Experiment: NCI tumour cell line growth inhibition, 48 h
Items are presented alongside their recorded TGI.

Examples from the recorded data:
molecule | experimental value
CC(=O)C1=C(C)N(c2ccc(C)cc2)C2(O)C=CC(=O)C3=C(O)c4ccccc4C(=O)C312 (configuration not stated) | > 100000 nM
C[N+](C)(C)CC(=O)N/N=C/c1oc(-c2cccc([N+](=O)[O-])c2)c(-c2cccc([N+](=O)[O-])c2)c1[N+](=O)[O-] | > 100000 nM
CC(C)CNC(=O)c1c(NC(=O)c2ccccc2)sc2[nH]c(=O)n(-c3ccccc3)c(=O)c12 | 40000 nM

# lookup: TGI of C[As](C)SCC(NC(=O)CCC(N)C(=O)O)C(=O)NCC(=O)O.Cl.c1ccncc1 (configuration not stated)
398 nM

# lookup: TGI of COc1cc2c(cc1OCc1ccccc1)N=C[C@@H]1C[C@@H](F)CN1C2=O
511 nM

# lookup: TGI of Nc1ncnc2c1ccn2CC=C(CO)CO
> 100000 nM

# lookup: TGI of CC[C@@]1(OC(=O)C(N)CCC(=O)O)C(=O)OCc2c1cc1n(c2=O)Cc2cc3ccccc3nc2-1 (some centres not stated)
757 nM
